- Assayed target: T1, p300 CH1 domain (residues 330-420), GST removed with thrombin (human, UniProt Q09472 330-420)
- T1 construct: human p300, CH1 domain (zinc finger, TAZ type 1), residues 330-420; Thrombin-cleaved construct (expected m/z 10603.30), used on the Microcal VP ITC with synthetic partners (D1:p17); source: E. coli BL21 pLysS (pGEX-4T-1), glutathione beads, on-column thrombin cleavage, SEC
- T1 sequence (Q09472 330-420): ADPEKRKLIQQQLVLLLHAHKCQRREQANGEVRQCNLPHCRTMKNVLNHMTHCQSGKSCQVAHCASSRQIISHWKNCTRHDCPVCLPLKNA
- Experimental details: ITC; global fit in SEDPHAT of three titrations (HIF-1α776-826 to p300, CITED2 peptide to p300, CITED2 peptide to preformed p300/HIF-1α776-826) to a model with a ternary CITED2-HIF-1α-p300 complex; 40 mM sodium phosphate, pH 7.5, 100 mM NaCl, 1 mM DTT; 35 °C
- Experimental setup: both partners purified
pKd: −log10 of the molar value.
# pKd per record follows
Measure name: pKd

[
  {
    "Binder": "Ac-DEEVLMSLVIEMGLDRIKELPELWLGQNEFDFMTDF-NH2 (source: synthetic peptide) [CITED2224-259 (synthetic)]",
    "Quantitative readout": 7.94
  },
  {
    "Binder": "CITED2216-269 (synthetic) (source: synthetic peptide) peptide: Ac-NVIDTDFIDEEVLMSLVIEMGLDRIKELPELWLGQNEFDFMTDFVCKQQPSRVS-NH2",
    "Quantitative readout": 7.57
  }
]
